Values compiled from the nanobody polyreactivity screen of Harvey et al. (2022).

# measurement description: yeast display, Sf9 membrane polyspecificity reagent, FACS + sequencing; frameworks hold sequencing errors
property label: polyreactivity (PSR sort gate)

sequence text | measurement
QVQLVESGGGLVQAGGSLRLSCAASGSTFYYNAMGWYRQAPGKERELDARISRSGGSTYADSVKGRFTISRDNAKNTVYLQMNSLKPEDTAVYYCNADAYGTPEFTSYAVRYDYWGQGTQVTVSS | low polyreactivity
QVQLVESGGGLVQAGCSLRLSCASSGSTFEYYAKGRYRQAPGKERELGAAINGIGGSTTYADSVKGRFTISRDNAKNNVYFQMNSLKPEDTAVYYCNADVARSNSQASAYDYWGQGTQVTVSS | low polyreactivity

====

# measurement description: yeast display, Sf9 membrane polyspecificity reagent, FACS + sequencing; frameworks hold sequencing errors
property label: polyreactivity (PSR sort gate)

sequence text | measurement
QVQLVESGGGLVQAGGSLRLSCAASGIIFGDNAMGWYRQAPGKERELVAAIDSGGSTYYADSVKGRFTISRDNAKNTVYLQMNSLKPEDTAVYYCNAVTAFGYSYGGWDYDQYNYWGQGTQVTVSS | low polyreactivity
QVQLVESGGGLVQAGGSLRLSCEASGRTFDTYAMGCYRQAPGKERELVAAITTSGGTTYYADSVKGRFTISRDNAKNTVYLQMNSLKPEDTAVYYCAADPWIEYTYGSKAYYYWGQGTQVTVSS | low polyreactivity

====

# measurement description: yeast display, Sf9 membrane polyspecificity reagent, FACS + sequencing; frameworks hold sequencing errors
property label: polyreactivity (PSR sort gate)

sequence text | property label | measurement
QVHHVESGGGLVQAGGSLRLSSAASGSIISYYAMGWSRHAPGKERELVPAINRSGGSTYYADSVKGRFTITRDNAKNTVYLQMNSLKPDDTAVYYCNAVRLYYGAGGQFQYHYWGQGTHVTVSS | polyreactivity (PSR sort gate) | high polyreactivity
QVQLEESCGGLVQAGGSLRLSCAASGPIIRAYAMGWYRQAPGKERELVAAITRSGGSTYYADSVKGRFTISLDNAKNTVYLQMNSLKPEDTAVYYCNARTRYDDGYDSWGQGTQVTVSS | polyreactivity (PSR sort gate) | high polyreactivity
QVQLHESGGGLVQAGGSLRLSCAASGTISYAGPMGWYRQAPGKEREFVAGIGVGSNTNYADSVKGRYTIIRDNAKNTVYLQMTSLKPEETAVYYCAVGGYAPLGPPYWGQGTQVTVSS | polyreactivity (PSR sort gate) | low polyreactivity
QVQLVESGGGLVQAGGSLRLSCAASGSILDSNAMGWYRQAPGKERELVAAITSGGSTYYADSVKGRFTISRDNAKNTVYLQKNSLKPEDTAVYYCDTPVASVTGYDYWGQGTQVTVSS | polyreactivity (PSR sort gate) | low polyreactivity

Turning now to a further record.
### Prompt Could you tell me which polyreactivity (PSR sort gate) is on file for QVQLVESGGGLVQAGGSLRLSCAASGFIFYYNTMGWYRQAPGKERELVASITWSGDTTYYADSVKGRFTISRDNAKNTVYLQMNSLKPEDTAVYYCAAVHYYTYRRYDYWGQGTQVTVSS ?
### Response low polyreactivity

====

# measurement description: yeast display, Sf9 membrane polyspecificity reagent, FACS + sequencing; frameworks hold sequencing errors
property label: polyreactivity (PSR sort gate)

sequence text | polyreactivity (PSR sort gate)
QVQLVESGGGLVQAGGRLRLSCAASGRTFYYYAMGWYRQAPGKERELVAAISWSGGRTYYADSVKGRFTISRDNAKNTVYLQMNSLKPEDTAVYYCNAETAAAQASYDRLDVLLDYWGQGTQVTVSS | low polyreactivity
QVQLVESGGGLVQAGGSLRLSCAASGRTFLAYAMGWYRQAPGKERELVAAISKSGGRTYYADSVKGRFTISRDNAKNTVYLQMNSLKPEDTAVYYCAADKQAYVTDDYWGQGTQVTVSS | high polyreactivity
QVQLVESGGGLVQAGASLRLSCAASGRTFGGYAMGWYRQAAGKERELVAAISYSGGSTYYADSVKGRFTISRDYAKNTVYLQMNSLKPEDTAVYYCAADGFDAYYWGQGTQVTVSS | low polyreactivity
QVQLVESGGGLVQAGGSLRLSCAASGFIFGKNAMGWYRQAPGKERELVAVISWRGSSTYYADSVKGRFTISRDNAKNTVYLQMNSLNPEDTAVYYCAARYPARGTLYYWGQGTQVTVSS | low polyreactivity
QVQLVESGGGLVQAGGSLRLSCAASGRIFYFYALGWYRQAPGKERDLVAAINIGGSTNYADSVKGRFTISRDNAKNTVYLQMNSLNPEDTAVYYCNAEAYSRSDYYRYDYWGQGTQVTVSS | low polyreactivity
QVQLVESGGGLVQAAGSLRLSCAASGLTFWKYTMGWNRQAPGKEWELVAAISISGTNTYYADSVKGRFTISRDNAKNTVYLQLNSLKPEDTAVYYCAAVRGYPPTNYYYWGPGTQVTVSS | high polyreactivity
QVQLVESGGGLVQAGGSLRLSCAASGSIFNDYAMGWYRQAPGKERELVAAITSSDGRTFYADSVKGRFTISRDNAKNTVYLQMNSLKPEDTAVYYCAAEWTSRYSTYEYWGQGTQVTVSS | low polyreactivity
QVQLVESGGGLVQAGGSLRLSCADSGRTFRGNAMGWYRQAPGKERELVAAISWSGDSTYYADSVKGRFTISRDNAKNSVYLQMNSLKPEDTAVYYCNRDYGLQRYRGWYQYNYWGQGTQVTVSS | low polyreactivity

### Prompt Look up polyreactivity (PSR sort gate): QVQLVESGGGLVQAGGSLRLSCAASGRSFYRNAMGWYRQAPGKERELVAAITSSGASTYYADSVKGRFTISRDNAKNTVYLQMNSLKPEDTAVYYCAAKYVYSVGNYRYDYWGQGTQVTVSS
### Response low polyreactivity

### Prompt One more sequence: QVQLVESGGGLVQAGGSLRLSCAASGLIFWINAMGWYRQAPWKERDLVAAITNSGGDTYYADSVKGRFTISRDNAKKTVYLQMNSLKTEDTAVYYCNADGTKWVRETYDYWGQGTQVTVSS
### Response low polyreactivity

### Prompt QVQLVESGGGLVQAGGSLRLSCAASGRIFYYNAMGWYRQAPGKEWELVAAISSSGTTYYADSVKGRFTISRDNAKNTVYLQMNSLKPEDTAVYYCAAGSYWSPYGQSFWPKYDYWGQGTQVTVSS , same question.
### Response high polyreactivity

### Prompt Also QVQLVESGGGLVQAGGSLRLSCAASGSTFPYYAMGWYRQAPGKERELVAVITSSGSRTYYADSVKGRFTISRDNAKNTVYLPMNSLKPEDTAVYYCARDTRYYLPYRSQYDYWGQGTQVTVSS ?
### Response high polyreactivity

### Prompt Try the sequence QVQLVESGGGLVPAGGSLRLSCAASGSTFVGNAMGWYRQAPGKERELVAAISSGGSTNYADSVKGRFTISRDNAKNTVYLQMNSLKPEDTAVYYCNAVYFYWLYGFSYFATGITYDYWGQGTQVTVSS
### Response high polyreactivity

### Prompt Please answer likewise for QDQLVESGGGLVQAGGSLRLSCAASGRIFRSYAMGWYRQAPGKERELVAAINTGGITYYADSVKGRFTISRDNAKNTVYLQMNSLKPEDTAVYYCNTYILSRMNYWGQCTQVTVSS
### Response high polyreactivity

### Prompt Also QGQLVESGGGLVQAGGSLRLSCAASGSIFGPYVMGWYRPAPGTERELVASITSSGGSTYYADSVKGRFTISRDNAKNTVYLQMNSLKPEDTAVYYCAATRSFSGGYGYVSYDYWGQGTQVTVSS , if possible.
### Response high polyreactivity

### Prompt # repeat for QVQLVESGGGLVQAGGSLRLSCAASGRIFTNNAMGWYRQAPGKERELVAAISKRGGSTYYADSVKGRFTISRDNAKNTVYLQMNSLKPEDTAVYYCNAREYIHWRGALGLFGSWGQGTQVTVSS
### Response high polyreactivity
